study-system: SpBbc1
protocol-summary: SPOT peptide array binding signal intensity (averaged, normalized) (arbitrary units (background-subtracted, floor 0; scale differs between SH3 domains)); higher = stronger binding of the SH3 domain to the peptide
Each entry below carries its recorded SPOT peptide array binding signal intensity.
quantity-kind: SPOT peptide array binding signal intensity

binder | reported-relation | test-result
EQEEIAPSLPSRNSI | = | 2
TPEIPPPLPPKIMVH | = | 0.5
VPKEPAPAPPPEPDM | = | 1.12
YLTRPLPSTPNEDSR | ≤ | 0
